# Tested on: dengue virus type 3
# EXPERIMENTAL PROTOCOL: Antiviral activity against Dengue virus 3 D3MY05-34640 infected in human HuH7 replicon cells expressing Renilla luciferase and neomycin-resistance genes assessed as reduction in viral replication incubated for 48 hrs by luciferase reporter replicon-based assay
# Assay type: functional, organism-based
# EXPERIMENTAL CONDITIONS: D3MY05-34640, Huh-7, 48 h
PROPERTY LABEL: EC50
Value and unit, in that order.

Worked examples follow.
INSERT INTO assay_data (structure_smiles, result) VALUES
  ('CC#CCN1C(=O)[C@]2(CC(=O)Nc3c2nnn3[C@@H](C)c2ccc(Cl)cc2)c2cc(Cl)ccc21', '20 nM'),
  ('C[C@@H](c1ccc(Cl)cc1)n1nnc2c1NC(=O)C[C@]21C(=O)N(Cc2cccnc2)c2ccc(Cl)cc21', '21 nM'),
  ('C[C@@H](c1ccc(Cl)cc1)n1nnc2c1NC(=O)C[C@]21C(=O)N(Cc2ccncc2)c2ccc(Cl)cc21', '25 nM'),
  ('CCCCCCN1C(=O)[C@]2(CC(=O)Nc3c2nnn3[C@@H](C)c2ccc(Cl)cc2)c2cc(Cl)ccc21', '140 nM'),
  ('C[C@@H](c1ccc(Cl)cc1)n1nnc2c1NC(=O)C[C@]21C(=O)N(CCCBr)c2ccc(Cl)cc21', '76 nM');

API: the following record is the query input.
What measured EC50 goes with C[C@@H](c1ccc(Cl)cc1)n1nnc2c1NC(=O)C[C@]21C(=O)N(Cc2cccc(F)c2)c2ccc(Cl)cc21 ?
51 nM

---

# EXPERIMENTAL PROTOCOL: Cytotoxicity in human HuH7 replicon cells infected with Dengue virus 2 NGC assessed as reduction in cell viability incubated for 48 hrs by Cell-titer-Glo reagent based assay
# Set-up: species or system Huh-7
PROPERTY LABEL: CC50 at 48 h

INSERT INTO measurements (structure_smiles, result) VALUES
  ('C[C@@H](c1ccc(Cl)cc1)n1nnc2c1NC(=O)C[C@]21C(=O)N(Cc2cc(C(C)(C)C)cc(C(C)(C)C)c2)c2ccc(Cl)cc21', '> 10 µM'),
  ('COC(=O)CN1C(=O)C[C@]2(C(=O)Nc3ccc(Cl)cc32)c2nnn([C@@H](C)c3ccc(Cl)cc3)c21', '> 10 µM'),
  ('C[C@@H](c1ccc(Cl)cc1)n1nnc2c1NC(=O)C[C@]21C(=O)N(CC(=O)O)c2ccc(Cl)cc21', '> 10 µM');

API: the following record is the query input.
What measured CC50 at 48 h goes with CNCCN1C(=O)[C@]2(CC(=O)Nc3c2nnn3[C@@H](C)c2ccc(Cl)cc2)c2cc(Cl)ccc21 ?
> 10 µM

---

# EXPERIMENTAL PROTOCOL: Cytotoxicity in human HuH7 replicon cells infected with Dengue virus 2 NGC assessed as reduction in cell viability incubated for 48 hrs by Cell-titer-Glo reagent based assay
# Parameters: species or system Huh-7
PROPERTY LABEL: CC50 at 48 h

What measured CC50 at 48 h goes with C[C@@H](c1ccc(Cl)cc1)n1nnc2c1NC(=O)C[C@]21C(=O)N(CCN2CCCCC2)c2ccc(Cl)cc21 ?
> 10 µM

Now give it for CC(C)CCN1C(=O)[C@]2(CC(=O)Nc3c2nnn3[C@@H](C)c2ccc(Cl)cc2)c2cc(Cl)ccc21 too.
> 10 µM

Now give it for C[C@@H](c1ccc(Cl)cc1)n1nnc2c1N(C)C(=O)C(C)(C)[C@]21C(=O)N(C)c2ccc(Cl)cc21 too.
> 10 µM

Now give it for C[C@@H](c1ccc(Cl)cc1)n1nnc2c1NC(=O)C[C@]21C(=O)N(CCN(C)CCS(C)(=O)=O)c2ccc(Cl)cc21 too.
> 10 µM

Now give it for CC(C)CN1C(=O)[C@]2(CC(=O)Nc3c2nnn3[C@@H](C)c2ccc(Cl)cc2)c2cc(Cl)ccc21 too.
> 10 µM

Now give it for CC(C)N1C(=O)C[C@]2(C(=O)Nc3ccc(Cl)cc32)c2nnn([C@@H](C)c3ccc(Cl)cc3)c21 too.
> 10 µM

Now give it for C[C@@H](c1ccc(Cl)cc1)n1nnc2c1NC(=O)C[C@]21C(=O)N(CCc2ccccc2)c2ccc(Cl)cc21 too.
> 10 µM

Just for reference, ChEMBL document CHEMBL4414551 is where these values come from.
